Test system: HeLa Kyoto
Assay: thermal stability score vs G1/S (z-score of summed log2 fold changes over temperatures); higher = more thermally stable than in G1/S
Conditions: cell cycle stage: early G1 (4.5 h after nocodazole release)
# cutoff -0.6 applies to thermal stability score; >= gives Yes, < gives No

substance	category
CIAPIN1	Yes
MVSHSELRKLFYSADAVCFDVDSTVIREEGIDELAKICGVEDAVSEMTRRAMGGAVPFKAALTERLALIQPSREQVQRLIAEQPPHLTPGIRELVSRLQERNVQVFLISGGFRSIVEHVASKLNIPATNVFANRLKFYFNGEYAGFDETQPTAESGGKGKVIKLLKEKFHFKKIIMIGDGATDMEACPPADAFIGFGGNVIRQQVKDNAKWYITDFVELLGELEE [PSPH]	Yes
MNWELLLWLLVLCALLLLLVQLLRFLRADGDLTLLWAEWQGRRPEWELTDMVVWVTGASSGIGEELAYQLSKLGVSLVLSARRVHELERVKRRCLENGNLKEKDILVLPLDLTDTGSHEAATKAVLQEFGRIDILVNNGGMSQRSLCMDTSLDVYRKLIELNYLGTVSLTKCVLPHMIERKQGKIVTVNSILGIISVPLSIGYCASKHALRGFFNGLRTELATYPGIIVSNICPGPVQSNIVENSLAGEVTKTIGNNGDQSHKMTTSRCVRLMLISMANDLKEVWISEQPFLLVTYLWQYMPTWAWWITNKMGKKRIENFKSGVDADSSYFKIFKTKHD [DHRS7]	No
MPFDFRRFDIYRKVPKDLTQPTYTGAIISICCCLFILFLFLSELTGFITTEVVNELYVDDPDKDSGGKIDVSLNISLPNLHCELVGLDIQDEMGRHEVGHIDNSMKIPLNNGAGCRFEGQFSINKVPGNFHVSTHSATAQPQNPDMTHVIHKLSFGDTLQVQNIHGAFNALGGADRLTSNPLASHDYILKIVPTVYEDKSGKQRYSYQYTVANKEYVAYSHTGRIIPAIWFRYDLSPITVKYTERRQPLYRFITTICAIIGGTFTVAGILDSCIFTASEAWKKIQLGKMH [ERGIC1]	Yes
MPKVKRSRKAPPDGWELIEPTLDELDQKMREAETEPHEGKRKVESLWPIFRIHHQKTRYIFDLFYKRKAISRELYEYCIKEGYADKNLIAKWKKQGYENLCCLRCIQTRDTNFGTNCICRVPKSKLEVGRIIECTHCGCRGCSG [BUD31]	Yes
MGSQVSVESGALHVVIVGGGFGGIAAASQLQALNVPFMLVDMKDSFHHNVAALRASVETGFAKKTFISYSVTFKDNFRQGLVVGIDLKNQMVLLQGGEALPFSHLILATGSTGPFPGKFNEVSSQQAAIQAYEDMVRQVQRSRFIVVVGGGSAGVEMAAEIKTEYPEKEVTLIHSQVALADKELLPSVRQEVKEILLRKGVQLLLSERVSNLEELPLNEYREYIKVQTDKGTEVATNLVILCTGIKINSSAYRKAFESRLASSGALRVNEHLQVEGHSNVYAIGDCADVRTPKMAYLAGLHANIAVANIVNSVKQRPLQAYKPGALTFLLSMGRNDGVGQISGFYVGRLMVRLTKSRDLFVSTSWKTMRQSPP [AIFM2]	No

====

Some sequences, each annotated with its measured thermal stability score.
System: HeLa Kyoto
Test: thermal stability score vs G1/S (z-score of summed log2 fold changes over temperatures); higher = more thermally stable than in G1/S
Settings: cell cycle stage: early G1 (4.5 h after nocodazole release)

record-sequence	thermal stability score
MVAPVWYLVAAALLVGFILFLTRSRGRAASAGQEPLHNEELAGAGRVAQPGPLEPEEPRAGGRPRRRRDLGSRLQAQRRAQRVAWAEADENEEEAVILAQEEEGVEKPAETHLSGKIGAKKLRKLEEKQARKAQREAEEAEREERKRLESQREAEWKKEEERLRLEEEQKEEEERKAREEQAQREHEEYLKLKEAFVVEEEGVGETMTEEQSQSFLTEFINYIKQSKVVLLEDLASQVGLRTQDTINRIQDLLAEGTITGVIDDRGKFIYITPEELAAVANFIRQRGRVSIAELAQASNSLIAWGRESPAQAPA [DDRGK1]	-0.767
MAAQRPLRVLCLAGFRQSERGFREKTGALRKALRGRAELVCLSGPHPVPDPPGPEGARSDFGSCPPEEQPRGWWFSEQEADVFSALEEPAVCRGLEESLGMVAQALNRLGPFDGLLGFSQGAALAALVCALGQAGDPRFPLPRFILLVSGFCPRGIGFKESILQRPLSLPSLHVFGDTDKVIPSQESVQLASQFPGAITLTHSGGHFIPAAAPQRQAYLKFLDQFAE [OVCA2]	-1.18

====

System: HeLa Kyoto
Test: thermal stability score vs G1/S (z-score of summed log2 fold changes over temperatures); higher = more thermally stable than in G1/S
Conditions: cell cycle stage: early G1 (4.5 h after nocodazole release)
Some sequences, each annotated with its measured thermal stability score.

record-sequence	thermal stability score
MALDVKSRAKRYEKLDFLGEGQFATVYKARDKNTNQIVAIKKIKLGHRSEAKDGINRTALREIKLLQELSHPNIIGLLDAFGHKSNISLVFDFMETDLEVIIKDNSLVLTPSHIKAYMLMTLQGLEYLHQHWILHRDLKPNNLLLDENGVLKLADFGLAKSFGSPNRAYTHQVVTRWYRAPELLFGARMYGVGVDMWAVGCILAELLLRVPFLPGDSDLDQLTRIFETLGTPTEEQWPDMCSLPDYVTFKSFPGIPLHHIFSAAGDDLLDLIQGLFLFNPCARITATQALKMKYFSNRPGPTPGCQLPRPNCPVETLKEQSNPALAIKRKRTEALEQGGLPKKLIF [CDK7]	0.106
MEEECRVLSIQSHVIRGYVGNRAATFPLQVLGFEIDAVNSVQFSNHTGYAHWKGQVLNSDELQELYEGLRLNNMNKYDYVLTGYTRDKSFLAMVVDIVQELKQQNPRLVYVCDPVLGDKWDGEGSMYVPEDLLPVYKEKVVPLADIITPNQFEAELLSGRKIHSQEEALRVMDMLHSMGPDTVVITSSDLPSPQGSNYLIVLGSQRRRNPAGSVVMERIRMDIRKVDAVFVGTGDLFAAMLLAWTHKHPNNLKVACEKTVSTLHHVLQRTIQCAKAQAGEGVRPSPMQLELRMVQSKRDIEDPEIVVQATVL [PDXK]	0.134

====

Tested on: HeLa Kyoto
Assay: solubility in G1/S (NP-40 vs SDS abundance) (log2 ratio); higher = more soluble
Conditions: cell cycle stage: G1/S

record-sequence	solubility in G1/S (log2)
MNAARTGYRVFSANSTAACTELAKRITERLGAELGKSVVYQETNGETRVEIKESVRGQDIFIIQTIPRDVNTAVMELLIMAYALKTACARNIIGVIPYFPYSKQSKMRKRGSIVCKLLASMLAKAGLTHIITMDLHQKEIQGFFSFPVDNLRASPFLLQYIQEEIPNYRNAVIVAKSPDAAKRAQSYAERLRLGLAVIHGEAQCTELDMDDGRHSPPMVKNATVHPGLELPLMMAKEKPPITVVGDVGGRIAIIVDDIIDDVESFVAAAEILKERGAYKIYVMATHGILSAEAPRLIEESSVDEVVVTNTVPHEVQKLQCPKIKTVDISLILSEAIRRIHNGESMAYLFRNITVDD [PRPSAP1]	0.0529

====

Some sequences, each annotated with its measured melting temperature.
Tested on: HeLa Kyoto
Test: melting temperature (median over replicates), in situ; higher = more thermally stable
Conditions: cell cycle stage: G1/S

record-sequence	melting temperature [°C]
MQAERGARGGRGRRPGRGRPGGDRHSERPGAAAAVARGGGGGGGGDGGGRRGRGRGRGFRGARGGRGGGGAPRGSRREPGGWGAGASAPVEDDSDAETYGEENDEQGNYSKRKIVSNWDRYQDIEKEVNNESGESQRGTDFSVLLSSAGDSFSQFRFAEEKEWDSEASCPKQNSAFYVDSELLVRALQELPLCLRLNVAAELVQGTVPLEVPQVKPKRTDDGKGLGMQLKGPLGPGGRGPIFELKSVAAGCPVLLGKDNPSPGPSRDSQKPTSPLQSAGDHLEEELDLLLNLDAPIKEGDNILPDQTSQDLKSKEDGEVVQEEEVCAKPSVTEEKNMEPEQPSTSKNVTEEELEDWLDSMIS [AVEN]	52.9
MAEPQPPSGGLTDEAALSCCSDADPSTKDFLLQQTMLRVKDPKKSLDFYTRVLGMTLIQKCDFPIMKFSLYFLAYEDKNDIPKEKDEKIAWALSRKATLELTHNWGTEDDETQSYHNGNSDPRGFGHIGIAVPDVYSACKRFEELGVKFVKKPDDGKMKGLAFIQDPDGYWIEILNPNKMATLM [GLO1]	55.8
MAAALWGFFPVLLLLLLSGDVQSSEVPGAAAEGSGGSGVGIGDRFKIEGRAVVPGVKPQDWISAARVLVDGEEHVGFLKTDGSFVVHDIPSGSYVVEVVSPAYRFDPVRVDITSKGKMRARYVNYIKTSEVVRLPYPLQMKSSGPPSYFIKRESWGWTDFLMNPMVMMMVLPLLIFVLLPKVVNTSDPDMRREMEQSMNMLNSNHELPDVSEFMTRLFSSKSSGKSSSGSSKTGKSGAGKRR [EMC7]	54.4
MSGAGEALAPGPVGPQRVAEAGGGQLGSTAQGKCDKDNTEKDITQATNSHFTHGEMQDQSIWGNPSDGELIRTQPQRLPQLQTSAQVPSGEEIGKIKNGHTGLSNGNGIHHGAKHGSADNRKLSAPVSQKMHRKIQSSLSVNSDISKKSKVNAVFSQKTGSSPEDCCVHCILACLFCEFLTLCNIVLGQASCGICTSEACCCCCGDEMGDDCNCPCDMDCGIMDACCESSDCLEICMECCGICFPS [MDFIC]	57.2
MSLHGKRKEIYKYEAPWTVYAMNWSVRPDKRFRLALGSFVEEYNNKVQLVGLDEESSEFICRNTFDHPYPTTKLMWIPDTKGVYPDLLATSGDYLRVWRVGETETRLECLLNNNKNSDFCAPLTSFDWNEVDPYLLGTSSIDTTCTIWGLETGQVLGRVNLVSGHVKTQLIAHDKEVYDIAFSRAGGGRDMFASVGADGSVRMFDLRHLEHSTIIYEDPQHHPLLRLCWNKQDPNYLATMAMDGMEVVILDVRVPCTPVARLNNHRACVNGIAWAPHSSCHICTAADDHQALIWDIQQMPRAIEDPILAYTAEGEINNVQWASTQPDWIAICYNNCLEILRV [DCAF7]	52.2
